- TESTED_SYSTEM: CAS1 (Sordaria macrospora, UniProt F7VW42)
- Construct: gene SMAC_03420; recombinant, obtained in-house
- Sequence (F7VW42 1-234): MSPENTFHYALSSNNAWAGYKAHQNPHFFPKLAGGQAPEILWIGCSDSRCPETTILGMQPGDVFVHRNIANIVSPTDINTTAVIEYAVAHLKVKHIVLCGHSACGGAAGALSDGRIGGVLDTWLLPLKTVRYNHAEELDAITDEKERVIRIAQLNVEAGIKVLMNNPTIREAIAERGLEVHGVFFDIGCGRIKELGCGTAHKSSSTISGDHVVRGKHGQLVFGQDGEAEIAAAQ
- MEASUREMENT_NOTES: stopped-flow CO2 hydration assay
- Type: biochemical
pKi: −log10 of the molar value.
READOUT_KIND: pKi

compound="Nc1ccc(S(N)(=O)=O)cc1 [compound 2, sulfanilamide]" readout_kind=pKi observed=6.84
